Recorded values, source PubChem BioAssay.

Molecular target: NADPH oxidase 5 (Homo sapiens)
Assay: NOX5-dependent H2O2 signal modulators, primary screen, NOX inhibitor project, cell-based, HEK293-NOX5, Amplex Red fluorescence (AID 1161)
Settings: HEK293-NOX5, ionomycin, 45 min, higher = more signal
VALUE_TYPE: z-score
Lab note: jot the number down without any unit.

>  <MOLECULE>
C[C@@H]1C=CCC(=O)OC[C@H](C)C(=O)N2CCC[C@H]2C(=O)OC1

>  <RESULT>
-0.764

$$$$
>  <MOLECULE>
c1ccc(C2NCCc3c2[nH]c2ccccc32)cc1 (stereo not drawn)

>  <RESULT>
1.23

$$$$
>  <MOLECULE>
Cc1ccc(S[C@]2(C(=O)O)CC(=O)N(Cc3ccccc3)[C@@H]2c2ccc(CO)cc2I)cc1

>  <RESULT>
0.38

$$$$

Consider the molecule CCOC(=O)NN=C1C[C@@H](O)[C@@H](O)[C@@H]2[C@@H]3C(=O)N(C(C)(C)C)C(=O)[C@@H]3CC[C@@H]12 and give its measured z-score.
0.295

Consider the molecule O=C1[C@H]2[C@H]3[C@H](O)[C@H](O)CC(=NOC[C@@H](O)COCc4ccco4)[C@@H]3CC[C@H]2C(=O)N1c1ccc(F)cc1F and give its measured z-score.
-0.579

---

Experiment: binders of probe aFGF10 on microarray, primary screen, stem cell growth factor project, biochemical, small-molecule microarray, fluorescence 635/667 (AID 1071);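 note: score merges 667 nm spot intensity and signal to noise from triplicate slides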
Conditions: higher = more signal
Below, each of the compounds is paired with its reported composite z-score value.
Lab note: jot the number down without any unit.

Consider the compound CC(CCN1CCCCc2nc(C)c(C)cc21)=NOC(C)CN1CCCc2nc(C)c(C)cc21 (configuration not stated) and give its measured composite z-score.
0.943

Consider the compound CCCCCCc1nc(CCCc2cc3c(c(CCCCCC)n2)[Si](C(C)C)(C(C)C)O[C@H]3c2ccccc2)cc2c1[Si](C(C)C)(C(C)C)O[C@H]2c1ccccc1 and give its measured composite z-score.
-0.217

Consider the compound C=CC[C@@H]1C=C[C@H](ON=C(C)CCN2CCc3nc(CC)c(CC)cc3C2)[C@@H](CO)O1 and give its measured composite z-score.
-0.21

Consider the compound COc1cccc([C@@H]2Oc3ccc(Br)cc3C(=O)[C@H]2O)c1 and give its measured composite z-score.
0.783

Consider the compound O=C1[C@H]2[C@H]3[C@H](O)[C@H](O)CC(=NOCc4ccccc4)[C@@H]3CC[C@H]2C(=O)N1C1CCCCC1 and give its measured composite z-score.
0.292

Consider the compound COC(=O)[C@@]1(Cc2ccc(F)cc2)[C@H]2c3cc(C(=O)N(C)C)n(Cc4ccc(OC)c(OC)c4)c3C[C@H]2CN1C(=O)c1ccccc1 and give its measured composite z-score.
0.551

Consider the compound COc1ccc(COC(=O)NN=C2C[C@@H](O)[C@@H](O)[C@@H]3[C@@H]4C(=O)N(Cc5ccc6c(c5)OCO6)C(=O)[C@@H]4CC[C@@H]23)cc1 and give its measured composite z-score.
-0.0669

---

Biological target: Concanavalin-A (Canavalia ensiformis) (UniProt P02866)
Sequence (P02866 whole entry, looked up): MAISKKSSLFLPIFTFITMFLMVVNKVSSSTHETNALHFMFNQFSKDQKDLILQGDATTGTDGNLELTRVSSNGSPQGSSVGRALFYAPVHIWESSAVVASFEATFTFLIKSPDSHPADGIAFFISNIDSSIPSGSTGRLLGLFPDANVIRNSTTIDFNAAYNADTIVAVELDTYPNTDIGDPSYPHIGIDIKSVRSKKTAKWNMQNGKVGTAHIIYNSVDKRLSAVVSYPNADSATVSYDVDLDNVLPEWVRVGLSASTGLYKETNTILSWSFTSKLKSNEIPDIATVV
Test: ConA small-molecule binders, primary screen, artefact control for SMM control protein annotation, biochemical, small-molecule microarray, Alexa647 label, 635 nm (AID 1127);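 note: z combines 667 nm emission intensity with signal-to-noise across three replicate slides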
Details: ConA-A647 binding fluorescence, higher = more signal
# composite z-score >= 0.7 gives Yes, anything below gives No

>  <COMPOUND>
COCC(=C=CC[C@@H](O)c1ccccc1OCCO)CCO

>  <LABEL_VALUE>
No

$$$$

Please find the next compound below.
Check the entry COc1ccc(O[C@@H]2[C@H](O)CO[C@H]2C=CC#Cc2ccccc2)cc1 : does composite z-score equal or exceed 0.7?
No
